Data credit: patent US20050002859A1

Recorded IC50, one value per entry.
# Measurement Target: COX-2 (Homo sapiens, UniProt P35354)
# Sequence (P35354 18-604): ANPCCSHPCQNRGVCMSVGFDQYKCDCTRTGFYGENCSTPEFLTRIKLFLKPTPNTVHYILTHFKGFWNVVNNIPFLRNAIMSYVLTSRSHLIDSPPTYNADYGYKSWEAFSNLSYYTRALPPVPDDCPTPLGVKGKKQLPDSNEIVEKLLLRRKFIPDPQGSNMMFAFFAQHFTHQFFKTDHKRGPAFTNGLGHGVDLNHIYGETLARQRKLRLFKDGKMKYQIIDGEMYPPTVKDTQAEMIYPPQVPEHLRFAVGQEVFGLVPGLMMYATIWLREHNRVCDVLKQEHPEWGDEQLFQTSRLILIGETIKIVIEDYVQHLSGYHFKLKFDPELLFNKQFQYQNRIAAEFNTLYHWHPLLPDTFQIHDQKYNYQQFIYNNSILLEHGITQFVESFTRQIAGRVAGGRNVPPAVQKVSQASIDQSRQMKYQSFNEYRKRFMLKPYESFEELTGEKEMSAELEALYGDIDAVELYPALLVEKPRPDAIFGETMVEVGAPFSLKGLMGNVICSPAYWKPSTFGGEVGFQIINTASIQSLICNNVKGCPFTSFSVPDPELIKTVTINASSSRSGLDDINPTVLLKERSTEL
# Method Description: Inhibition of purified COX-2 by NSAID derivatives (species not stated)
# Format: biochemical
# Measurement Parameters: purified COX-2
Express your answer in nM, writing the number without its unit.

Compound	IC50 [nM]
O=C(c1ccccc1)c1ccc2n1CCC2C(=O)NCc1ccc(F)cc1 (centres unmarked)	80

What does the record list as IC50 for "COc1ccc2c(c1)c(CC(=O)NCCOC(=O)c1cc(I)cc(I)c1I)c(C)n2C(=O)c1ccc(Cl)cc1" ?
50
